- target: Serine/threonine-protein kinase TBK1 (Homo sapiens)
- Sequence (Q9UHD2 whole entry): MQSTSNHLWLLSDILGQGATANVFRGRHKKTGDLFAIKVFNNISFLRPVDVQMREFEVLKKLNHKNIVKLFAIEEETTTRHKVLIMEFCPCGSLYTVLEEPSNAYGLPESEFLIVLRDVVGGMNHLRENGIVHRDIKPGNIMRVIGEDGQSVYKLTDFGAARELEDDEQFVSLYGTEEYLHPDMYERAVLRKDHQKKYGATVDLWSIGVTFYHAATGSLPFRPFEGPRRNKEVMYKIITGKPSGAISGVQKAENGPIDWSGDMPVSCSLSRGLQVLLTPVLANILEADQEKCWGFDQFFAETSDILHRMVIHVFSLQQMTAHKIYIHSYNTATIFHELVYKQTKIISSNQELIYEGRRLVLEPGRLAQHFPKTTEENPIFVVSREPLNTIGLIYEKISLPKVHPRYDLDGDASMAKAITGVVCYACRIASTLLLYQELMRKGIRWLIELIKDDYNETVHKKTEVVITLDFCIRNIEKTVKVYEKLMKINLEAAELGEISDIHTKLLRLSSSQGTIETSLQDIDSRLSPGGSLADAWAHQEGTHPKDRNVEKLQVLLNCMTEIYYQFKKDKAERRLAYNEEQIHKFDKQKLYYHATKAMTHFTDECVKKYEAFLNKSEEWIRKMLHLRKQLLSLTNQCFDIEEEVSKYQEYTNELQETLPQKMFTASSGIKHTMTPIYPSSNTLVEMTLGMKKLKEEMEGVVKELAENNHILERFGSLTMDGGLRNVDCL

{"columns": ["smilesNotation", "IC50, nM"],
 "data": [
  ["COc1cc(Nc2c(C#N)cnc3cc(OCCCN4CCN(C)CC4)c(OC)cc23)c(Cl)cc1Cl", 471]
]}

====

- target: High affinity nerve growth factor receptor (Homo sapiens)
- Sequence (P04629 whole entry): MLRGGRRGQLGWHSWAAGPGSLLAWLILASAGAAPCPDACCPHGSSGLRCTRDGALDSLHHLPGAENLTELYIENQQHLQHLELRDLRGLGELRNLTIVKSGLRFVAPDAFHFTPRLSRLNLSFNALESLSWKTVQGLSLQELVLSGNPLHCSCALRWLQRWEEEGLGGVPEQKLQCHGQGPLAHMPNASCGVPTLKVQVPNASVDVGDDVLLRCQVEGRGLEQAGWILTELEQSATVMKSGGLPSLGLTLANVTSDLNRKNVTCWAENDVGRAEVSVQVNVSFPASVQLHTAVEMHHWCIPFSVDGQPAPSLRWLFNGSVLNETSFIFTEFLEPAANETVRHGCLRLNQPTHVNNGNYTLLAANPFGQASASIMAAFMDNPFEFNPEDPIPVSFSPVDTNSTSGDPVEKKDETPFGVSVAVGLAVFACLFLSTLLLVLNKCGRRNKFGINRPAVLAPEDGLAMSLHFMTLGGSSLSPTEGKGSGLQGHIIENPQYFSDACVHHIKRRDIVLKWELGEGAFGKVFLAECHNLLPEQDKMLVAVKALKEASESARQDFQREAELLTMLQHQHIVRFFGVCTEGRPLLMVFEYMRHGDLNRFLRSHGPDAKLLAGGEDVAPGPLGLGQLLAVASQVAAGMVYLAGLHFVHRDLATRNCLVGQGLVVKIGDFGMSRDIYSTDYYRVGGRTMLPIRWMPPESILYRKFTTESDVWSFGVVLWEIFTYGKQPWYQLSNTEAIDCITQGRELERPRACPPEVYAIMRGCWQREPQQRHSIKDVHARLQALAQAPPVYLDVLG
- methodNotes: Inhibition of TRKA

{"columns": ["smilesNotation", "target", "IC50 / nM"],
 "data": [
  ["COc1cc(Nc2c(C#N)cnc3cc(OCCCN4CCN(C)CC4)c(OC)cc23)c(Cl)cc1Cl", "High affinity nerve growth factor receptor (Homo sapiens)", 22]
]}

====

- target: Tyrosine-protein kinase BTK (Homo sapiens)
- Sequence (Q06187 whole entry): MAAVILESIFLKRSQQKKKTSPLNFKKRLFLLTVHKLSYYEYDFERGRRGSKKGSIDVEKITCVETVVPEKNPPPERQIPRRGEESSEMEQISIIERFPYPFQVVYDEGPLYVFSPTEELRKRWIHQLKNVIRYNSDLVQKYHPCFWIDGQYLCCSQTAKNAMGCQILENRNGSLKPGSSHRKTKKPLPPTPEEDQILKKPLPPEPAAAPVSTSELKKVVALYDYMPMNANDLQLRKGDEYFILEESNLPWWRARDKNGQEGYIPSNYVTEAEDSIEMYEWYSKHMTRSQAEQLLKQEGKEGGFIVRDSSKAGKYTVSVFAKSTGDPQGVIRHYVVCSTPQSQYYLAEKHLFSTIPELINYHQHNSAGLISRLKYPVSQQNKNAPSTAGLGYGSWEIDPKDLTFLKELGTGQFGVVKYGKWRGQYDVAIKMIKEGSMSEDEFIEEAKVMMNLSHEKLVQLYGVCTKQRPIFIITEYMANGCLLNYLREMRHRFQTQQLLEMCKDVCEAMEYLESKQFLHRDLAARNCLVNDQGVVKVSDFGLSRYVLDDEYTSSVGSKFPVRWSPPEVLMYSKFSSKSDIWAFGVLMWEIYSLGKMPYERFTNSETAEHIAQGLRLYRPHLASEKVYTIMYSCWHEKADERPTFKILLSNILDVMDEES

{"columns": ["compound", "IC50"],
 "data": [
  ["COc1cc(Nc2c(C#N)cnc3cc(OCCCN4CCN(C)CC4)c(OC)cc23)c(Cl)cc1Cl [BOSUTINIB]", "2.5 nM"]
]}

====

- target: Mitogen-activated protein kinase kinase kinase kinase 2 (Homo sapiens)
- Sequence (Q12851 whole entry): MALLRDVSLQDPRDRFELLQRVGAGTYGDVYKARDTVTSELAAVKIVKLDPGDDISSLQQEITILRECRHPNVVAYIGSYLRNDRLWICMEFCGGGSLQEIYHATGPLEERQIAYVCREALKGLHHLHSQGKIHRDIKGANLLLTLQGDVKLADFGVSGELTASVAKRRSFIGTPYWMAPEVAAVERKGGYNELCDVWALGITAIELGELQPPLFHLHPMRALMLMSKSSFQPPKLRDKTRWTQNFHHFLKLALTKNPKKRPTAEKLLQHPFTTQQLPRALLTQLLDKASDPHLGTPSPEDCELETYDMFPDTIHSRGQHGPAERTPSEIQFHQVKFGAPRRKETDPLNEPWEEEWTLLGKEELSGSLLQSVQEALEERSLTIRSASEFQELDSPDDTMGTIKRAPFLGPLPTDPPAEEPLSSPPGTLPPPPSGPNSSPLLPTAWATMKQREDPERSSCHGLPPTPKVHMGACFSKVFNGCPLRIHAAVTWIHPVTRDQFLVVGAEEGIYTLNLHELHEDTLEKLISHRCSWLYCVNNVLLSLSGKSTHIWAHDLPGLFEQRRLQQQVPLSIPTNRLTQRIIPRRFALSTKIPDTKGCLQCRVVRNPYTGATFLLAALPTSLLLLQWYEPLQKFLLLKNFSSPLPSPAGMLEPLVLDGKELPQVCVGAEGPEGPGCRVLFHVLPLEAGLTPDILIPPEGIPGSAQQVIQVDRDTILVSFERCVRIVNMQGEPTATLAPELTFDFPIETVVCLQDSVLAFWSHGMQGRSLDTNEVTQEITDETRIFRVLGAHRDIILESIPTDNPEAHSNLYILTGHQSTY
- methodNotes: Inhibition of MAP4K2
valueType: IC50

{"columns": ["compound", "target", "endpointValue"],
 "data": [
  ["COc1cc(Nc2c(C#N)cnc3cc(OCCCN4CCN(C)CC4)c(OC)cc23)c(Cl)cc1Cl [BOSUTINIB]", "Mitogen-activated protein kinase kinase kinase kinase 2 (Homo sapiens)", "9.9 nM"]
]}

====

- target: Serine/threonine-protein kinase 24 (Homo sapiens)
- Sequence (Q9Y6E0 whole entry): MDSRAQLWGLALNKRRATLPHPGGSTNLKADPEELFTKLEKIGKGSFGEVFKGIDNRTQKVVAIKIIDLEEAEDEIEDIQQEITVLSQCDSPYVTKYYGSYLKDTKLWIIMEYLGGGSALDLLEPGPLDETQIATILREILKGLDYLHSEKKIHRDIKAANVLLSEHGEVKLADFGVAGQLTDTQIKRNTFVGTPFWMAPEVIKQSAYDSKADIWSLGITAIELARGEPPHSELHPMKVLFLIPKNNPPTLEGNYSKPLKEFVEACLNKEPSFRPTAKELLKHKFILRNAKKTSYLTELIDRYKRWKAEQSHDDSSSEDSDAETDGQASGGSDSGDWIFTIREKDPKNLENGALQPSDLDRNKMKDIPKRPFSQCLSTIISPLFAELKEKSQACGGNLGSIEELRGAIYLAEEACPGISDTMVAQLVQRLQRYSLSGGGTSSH
pIC50: −log10 of the molar value.
valueType: pIC50

{"columns": ["smilesNotation", "endpointValue"],
 "data": [
  ["COc1cc(Nc2c(C#N)cnc3cc(OCCCN4CCN(C)CC4)c(OC)cc23)c(Cl)cc1Cl", 8.41]
]}

====

- target: Activated CDC42 kinase 1 (Homo sapiens, UniProt Q07912)
- Sequence (Q07912 whole entry): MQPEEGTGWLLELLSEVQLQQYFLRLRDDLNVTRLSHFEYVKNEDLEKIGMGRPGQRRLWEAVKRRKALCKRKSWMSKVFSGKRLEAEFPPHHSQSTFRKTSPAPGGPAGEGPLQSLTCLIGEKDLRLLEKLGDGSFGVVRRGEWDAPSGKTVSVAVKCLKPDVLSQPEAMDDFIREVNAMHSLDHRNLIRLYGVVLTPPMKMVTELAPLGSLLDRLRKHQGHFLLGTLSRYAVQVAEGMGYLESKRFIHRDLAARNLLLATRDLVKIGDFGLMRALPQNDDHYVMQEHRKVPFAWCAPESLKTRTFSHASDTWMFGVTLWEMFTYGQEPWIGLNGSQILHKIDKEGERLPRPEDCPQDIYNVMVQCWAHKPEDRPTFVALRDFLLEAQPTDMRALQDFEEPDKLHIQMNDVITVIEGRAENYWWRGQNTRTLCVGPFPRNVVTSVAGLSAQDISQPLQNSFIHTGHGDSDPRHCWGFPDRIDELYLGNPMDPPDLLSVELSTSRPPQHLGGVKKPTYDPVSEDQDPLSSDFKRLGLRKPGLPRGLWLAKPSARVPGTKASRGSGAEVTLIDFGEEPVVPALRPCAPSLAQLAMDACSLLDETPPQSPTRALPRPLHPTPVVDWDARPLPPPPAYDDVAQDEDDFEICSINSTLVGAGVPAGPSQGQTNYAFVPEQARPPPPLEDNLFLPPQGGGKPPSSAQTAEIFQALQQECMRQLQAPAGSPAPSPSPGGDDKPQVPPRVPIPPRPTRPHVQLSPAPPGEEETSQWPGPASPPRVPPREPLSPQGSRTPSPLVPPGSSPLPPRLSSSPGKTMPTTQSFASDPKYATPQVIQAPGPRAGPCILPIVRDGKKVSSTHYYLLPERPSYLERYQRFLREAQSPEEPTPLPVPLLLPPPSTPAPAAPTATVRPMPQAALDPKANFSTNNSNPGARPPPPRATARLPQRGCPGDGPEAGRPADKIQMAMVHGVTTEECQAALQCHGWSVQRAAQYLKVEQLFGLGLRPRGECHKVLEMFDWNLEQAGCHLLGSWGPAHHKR
- methodNotes: Inhibition of TNK2
pIC50: −log10 of the molar value.

{"columns": ["smilesNotation", "target", "pIC50"],
 "data": [
  ["COc1cc(Nc2c(C#N)cnc3cc(OCCCN4CCN(C)CC4)c(OC)cc23)c(Cl)cc1Cl", "Activated CDC42 kinase 1 (Homo sapiens, UniProt Q07912)", 8.57]
]}

The reported numbers originate from ChEMBL document CHEMBL1240341.
